- assaySystem: UniProt P49761
- Sequence (P49761 whole entry): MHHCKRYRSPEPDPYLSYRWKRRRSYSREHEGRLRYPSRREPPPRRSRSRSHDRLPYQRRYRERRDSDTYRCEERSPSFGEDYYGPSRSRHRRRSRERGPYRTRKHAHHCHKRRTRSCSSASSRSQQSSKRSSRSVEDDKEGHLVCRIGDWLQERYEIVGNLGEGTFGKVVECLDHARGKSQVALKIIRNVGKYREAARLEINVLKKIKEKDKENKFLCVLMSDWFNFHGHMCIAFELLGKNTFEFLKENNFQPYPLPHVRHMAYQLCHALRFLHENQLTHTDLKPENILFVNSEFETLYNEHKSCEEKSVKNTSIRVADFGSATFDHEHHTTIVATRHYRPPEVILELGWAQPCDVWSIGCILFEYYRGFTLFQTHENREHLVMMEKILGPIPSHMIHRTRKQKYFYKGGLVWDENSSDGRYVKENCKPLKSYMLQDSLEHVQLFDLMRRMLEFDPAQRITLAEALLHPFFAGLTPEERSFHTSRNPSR
- experimentalDetails: Inhibition of recombinant CLK3 (unknown origin) using Ser/Thr 18 peptide as substrate incubated for 1 hr in presence of ATP by FRET assay
metricName: EC50

* COc1cncc(C(=O)Nc2c[nH]nc2C(=O)Nc2ccc(N3CCC(F)(F)C3)nc2)c1 | > 10 µM
* Oc1cncc(-c2ccc3[nH]nc(-c4nc5c(-c6cccc(F)c6)ccnc5[nH]4)c3c2)c1 | 0.045 µM
* O=C(Nc1cncc(-c2cc3c(-c4cc5c(-c6cccc(F)c6)ccnc5[nH]4)n[nH]c3cn2)c1)C1CC1 | > 10 µM
* Nc1cncc(-c2cc3c(-c4cc5c(-c6ccncc6)cncc5[nH]4)n[nH]c3cn2)c1 | > 10 µM
* O=C(Nc1ccc(N2CCC(F)(F)C2)nc1)c1n[nH]cc1C#Cc1cccnc1 | > 10 µM
* COc1cccc(-c2cncc3[nH]c(-c4n[nH]c5ccc(-c6cncc(NC(=O)C7CCCCC7)c6)nc45)nc23)c1 | > 10 µM
* Cc1n[nH]c2cc(F)c(-c3cncc(CN4CCCCC4)n3)cc12 | 3.38 µM
* O=C(Cc1ccccc1)Nc1cncc(-c2ccc3[nH]nc(-c4nc5c(-c6ccncc6)ccnc5[nH]4)c3n2)c1 | > 10 µM

Quote UniProt P49761 EC50 for entry c1cc(-c2cncc3[nH]c(-c4n[nH]c5ccc(-c6cncc(CNCC7CCCC7)c6)cc45)nc23)cs1 .
> 10 µM

Tell me EC50 of O=C(Nc1cccnc1)Nc1c[nH]nc1C(=O)Nc1ccc(C(F)(F)F)nc1 when tested on UniProt P49761.
> 10 µM

Print UniProt P49761 EC50 for Cc1n[nH]c2ccc(-c3cncc(O[C@H]4CCNC[C@H]4F)n3)cc12 .
1.76 µM

Give UniProt P49761 EC50 for the following compound: Cc1n[nH]c2ccc(-c3cncc(O[C@H]4CCNC[C@@H]4F)n3)cc12
1.72 µM

# return EC50 for CN(C)c1cncc(-c2cnc3[nH]nc(-c4cc5c(-c6ccncc6)cncc5[nH]4)c3c2)c1 , test system: UniProt P49761
> 10 µM

# assay system UniProt P49761: give EC50 of Cc1ccncc1-c1ccc2[nH]nc(-c3cc4c(-c5ccncc5)ccnc4[nH]3)c2n1
> 10 µM

---

- assaySystem: Dual specificity tyrosine-phosphorylation-regulated kinase 1A (Homo sapiens, UniProt Q13627)
- experimentalDetails: Inhibition of recombinant DYRK1A (unknown origin) using Ser/Thr 18 peptide as substrate incubated for 1 hr in presence of ATP by FRET assay
Param label: returns Criterion met when EC50 < 20 nM, returns Criterion not met otherwise, including exact equality.

Solved cases below.
- CCC(=O)Nc1cncc(-c2ccc3[nH]nc(-c4cc5c(-c6cccc(F)c6)nccc5[nH]4)c3c2)c1: Criterion met
- Nc1cncc(-c2ccc3[nH]nc(-c4nc5c(-c6ccccc6F)nccc5[nH]4)c3n2)c1: Criterion met
- COc1cncc(C(=O)Nc2c[nH]nc2C(=O)Nc2ccc(OCCN3CCCC3)nc2)c1: Criterion met
- O=C(Nc1cncc(-c2cnc3[nH]nc(-c4cc5c(-c6cccnc6)cccc5[nH]4)c3c2)c1)C1CCC1: Criterion not met
- O=C(Nc1cncc(-c2ccc3[nH]nc(-c4cc5c(-c6ccccc6F)nccc5[nH]4)c3n2)c1)C1CC1: Criterion not met
- O=C(Nc1cc2cc(-c3cncs3)ccc2cn1)C1(F)CCCCC1: Criterion met

Is EC50 strictly under 20 nM for the entry CN1CCN(c2cncc3[nH]c(-c4n[nH]c5ccc(-c6cncc(NC(=O)CC(C)(C)C)c6)cc45)cc23)CC1 ?
Criterion met

In plain terms, does O=C(Nc1cncc(-c2ccc3[nH]nc(-c4nc5c(-c6ccccc6F)ccnc5[nH]4)c3n2)c1)C(F)(F)F come in under 20 nM for EC50?
Criterion not met

Does the reported EC50 of the following molecule sit strictly below 20 nM? CN(C)CCNc1cc(F)cc(-c2cccc3[nH]c(-c4n[nH]c5cnc(-c6cncc(O)c6)cc45)cc23)c1
Criterion not met
